Test system: HCT-116
Experiment: NCI tumour cell line growth inhibition, 48 h
Calls of active or inactive are those of the source. Cut-off read from the data, not from the text of the source: active = GI50 up to about 1.1 µM and inactive = higher.
Answer with one of the outcomes active, inactive

Qu. Call for entry C[C@@H]1[C@@H]2[C@@H](C=C3C4CCC5Cc6nc7c(nc6C[C@@]5(C)C4C[C@H](O)[C@]32CO)CC2CCC3C4=C[C@H]5O[C@@]6(OC(C)(CO)C[C@@H]6O)[C@H](C)[C@@]5(O)[C@]4(C)[C@@H](O)CC3[C@]2(C)C7)O[C@]12CCC(C)(C)O2 (some centres not stated) :
Ans. active

Qu. Call for entry Cc1cc(C)nc(NS(=O)(=O)c2ccc(Nc3c4ccccc4nc4c(C(=O)N5CCN(CCOS(C)(=O)=O)CC5)cccc34)cc2)n1 :
Ans. inactive

Qu. Call for entry CC(C)(C)OC(=O)N(CCCCN(CCCNC(=O)C(F)(F)F)C(=O)OC(C)(C)C)CCCNC(=O)C(F)(F)F :
Ans. inactive

Qu. Call for entry CC(=O)OC1CC2(C)C(=CC1C1SCCS1)CCC1C2CCC2(C)C(OC(C)=O)CCC12 (configuration not stated) :
Ans. inactive

Qu. Call for entry Cn1c(NC(=O)NC23CC4CC(CC(C4)C2)C3)nc2ccccc21 :
Ans. inactive

Qu. Call for entry O=P1(c2ccccc2)Nc2ccccc2SSc2ccccc2N1 :
Ans. inactive

Qu. Call for entry Sc1nnc(NNc2ccccc2)n1Nc1ccccc1 :
Ans. inactive

Qu. Call for entry CC1=NN2C=Nc3c(c(-c4ccc(Cl)cc4)cn3-c3ccc(C)cc3)C2N1 (configuration not stated) :
Ans. inactive

Qu. Call for entry Cc1cc(Cl)ccc1NC(=O)CC/C(CC(=O)C(C)C)=N\NC(=O)C[n+]1ccccc1 :
Ans. inactive

Qu. Call for entry Nc1nc(O)c2nc3c(nc2n1)C(=O)N(c1ccc(C(=O)O)cc1)C3 :
Ans. inactive

Qu. Call for entry O=C(O)C(O)(c1ccc(-c2ccccc2)cc1)c1ccc(-c2ccccc2)cc1 :
Ans. inactive

Qu. Call for entry NNC(=O)CCc1ccc2ccc3ccccc3c2c1 :
Ans. inactive

Qu. Call for entry CCc1ccc2c(c1)CC1(C2)Cc2cc3c(cc2C1)C(=O)CC3 (configuration not stated) :
Ans. inactive

Qu. Call for entry FC(F)(F)c1ccc(C2ON=C(c3ccccc3)N2C23CC4CC(CC(C4)C2)C3)cc1 (configuration not stated) :
Ans. inactive

Qu. Call for entry CC1(C)/C(=N\Nc2ccc([N+](=O)[O-])cc2[N+](=O)[O-])C2CCC1C2 (configuration not stated) :
Ans. inactive

Qu. Call for entry O=S(=O)(SCCCCSS(=O)(=O)c1ccc(Cl)cc1)c1ccc(Cl)cc1 :
Ans. inactive

Qu. Call for entry Cn1c2ccccc2c(=O)c2cccc(C(=O)NC(CCC(N)=O)C(=O)O)c21 (configuration not stated) :
Ans. inactive
